target: Free fatty acid receptor 1 (Homo sapiens); assay: Displacement of 3-[4-({2',6'-dimethyl-6-[(4-[3H])-phenylmethoxy]biphenyl-3-yl}methoxy)phenyl] propanoic acid from human GPR40 receptor expressed in CHO cells after 90 mins by scintillation counting in presence of 0.2% BSA
Sequence (O14842 whole entry): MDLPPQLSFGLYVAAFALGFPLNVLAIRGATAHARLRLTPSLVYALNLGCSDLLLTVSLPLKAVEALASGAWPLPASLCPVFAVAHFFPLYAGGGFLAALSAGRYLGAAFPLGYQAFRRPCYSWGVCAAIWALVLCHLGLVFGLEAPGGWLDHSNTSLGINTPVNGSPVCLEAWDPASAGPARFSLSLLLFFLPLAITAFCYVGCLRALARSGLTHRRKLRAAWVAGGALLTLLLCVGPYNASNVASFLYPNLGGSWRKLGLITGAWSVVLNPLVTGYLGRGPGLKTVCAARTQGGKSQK
Readings of Ki for the listed compounds
Give your result in µM as a bare value.

• O=C(O)CC1COc2cc(OCc3cccc(-c4csc5ccccc45)c3)ccc21 (stereo not given) = 0.29
• Cc1cccc(C)c1-c1cc(COc2ccc3c(c2)OCC3CC(=O)O)ccc1OCc1ccccc1 (stereo not given) = 0.0069
• COc1ccc(COc2ccc3c(c2)OCC3CC(=O)O)cc1-c1c(C)cccc1C (stereo not given) = 0.13
• CCOCCOc1cc(C)c(-c2cccc(COc3ccc4c(c3)CC(CC(=O)O)C4)c2)c(C)c1 (stereo not given) = 0.27

Consider now this further compound.
Req: Requested read-out Ki, target or system Free fatty acid receptor 1 (Homo sapiens), entry Cc1cc(OCc2ccccc2)cc(C)c1-c1cccc(COc2ccc3c(c2)OCC3CC(=O)O)c1 (stereo not given)
Resp: 0.018

Source: ChEMBL document CHEMBL2021847
